biological target: JAK1 (Homo sapiens (Human), UniProt P23458); test: JAK kinase assay (HTRF), JAK1; conditions: catalytic domain, ATP at Km (7 μM)
Sequence (P23458 850-1154): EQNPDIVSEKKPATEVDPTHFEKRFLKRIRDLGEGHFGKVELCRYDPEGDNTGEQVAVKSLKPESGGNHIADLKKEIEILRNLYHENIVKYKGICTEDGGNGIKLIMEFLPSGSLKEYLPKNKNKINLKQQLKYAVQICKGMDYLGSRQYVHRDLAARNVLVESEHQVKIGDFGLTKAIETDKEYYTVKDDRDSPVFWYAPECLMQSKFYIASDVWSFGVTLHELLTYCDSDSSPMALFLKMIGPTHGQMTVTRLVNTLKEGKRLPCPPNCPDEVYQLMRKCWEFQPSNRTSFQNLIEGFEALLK
endpoint: EC50 (nM)

> print(dat)
                                   molecule  unitabbrev  value
1  O=C(N[C@H](CO)c1ccccn1)[C@H]1CCN(c2ncnc3[nH]ccc23)CC12CC2          nM   33.2
2  N#Cc1ccc([C@@H](O)CNC(=O)[C@H]2CCN(c3ncnc4[nH]ccc34)CC23CC3)nc1          nM      2
3  C[C@H](NC(=O)[C@H]1CCN(c2ncnc3[nH]ccc23)CC12CC2)c1ccc(C#N)cn1          nM    3.2
4  N#Cc1cccc(CNC(=O)C2CCN(c3ncnc4[nH]ccc34)CC23CC3)c1 (centres unmarked)          nM    5.5
5  O=C(NCC1CCCC1)C1CCN(c2ncnc3[nH]ccc23)CC12CC2 (centres unmarked)          nM    6.8
6  O=C(NC[C@H](O)C1CCCC1)[C@H]1CCN(c2ncnc3[nH]ccc23)CC12CC2          nM    0.8
7  O=C(OCC1(CO)CC(F)(F)C1)[C@H]1CCN(c2ncnc3[nH]ccc23)CC12CC2          nM    0.3
8  C[C@@H](NC(=O)[C@H]1CCN(c2ncnc3[nH]ccc23)CC12CC2)c1ccc(C#N)c(F)c1          nM      7
